Examples of binders with documented pKd follow.
Target: NANPNVDP (Plasmodium falciparum)
Assay: BLI, target on sensor
pKd: −log10 of the molar value.
quantity name: pKd

AB-007051 (antibody, V domains shown) VH: QMQLVESGGGVVQPGRSLRLSCTASGFTFSTYAMHWVRQSPGQGLQWVAVISYHSRNKYYEDSVRGRFTISRDNSKNTLYLQMNSLRAEDTAVYYCARDGYSSSFFDFWGQGTLVTVSS VL: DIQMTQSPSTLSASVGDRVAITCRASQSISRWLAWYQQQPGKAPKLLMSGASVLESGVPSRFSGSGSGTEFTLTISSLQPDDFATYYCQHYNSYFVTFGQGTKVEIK = 8.18
AB-007070 (antibody, V domains shown) VH: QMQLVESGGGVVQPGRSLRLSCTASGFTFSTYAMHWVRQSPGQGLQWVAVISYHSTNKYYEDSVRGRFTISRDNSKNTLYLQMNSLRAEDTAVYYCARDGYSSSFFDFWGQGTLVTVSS VL: DIQMTQSPSTLSASVGDRVAITCRASQSISRWLAWYQQQPGKAPKLLMSAASVLESGVPSRFSGSGSGTEFTLTISSLQPDDFATYYCQHYNSYFVTFGQGTKVEIK = 7.70
AB-007045 (antibody, V domains shown) VH: QMQLVESGGGVVQPGRSLRLSCTASGFTFSTYAMHWVRQSPGQGLQWVAVISYHSTNKYYEDSVRGRFTISRDNSKNTLYLQMNSLRAEDTAVYYCARDAYSSSFFDFWGQGTLVTVSS VL: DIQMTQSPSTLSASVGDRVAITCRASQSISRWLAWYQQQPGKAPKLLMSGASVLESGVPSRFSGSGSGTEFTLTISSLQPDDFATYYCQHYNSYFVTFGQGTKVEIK = 7.55
